Target: T1, mouse programmed cell death protein 1 Fc fusion protein (mPD-1-Fc), mPD-1 C60S (aa 25-167) (Mus musculus, UniProt Q02242, stabilised)
T1 construct: not cleaved; source: Expi293F, purified (Protein A, SEC; dimeric fraction); not shown: Fc (human), C-terminal, kept
Assay: SPR; Carterra LSA; Fab from the ammonium sulfate precipitate of the culture supernatant immobilised on a NiHC200M chip; hPD-1 (1-1024 nM) or mPD-1-Fc (4-1024 nM) as analyte, fourfold dilution series, no regeneration; HBS-EP pH 7.4, 25 °C; medians over the spots of a construct, KD = koff/kon
Details: one partner purified
MEASURE: koff
Answer shape: numeric part, then the unit.

{"BINDER": "toripalimab Fab L.V30Y (Fab, V domains shown, as the heavy chain of Sm3; light chain of Sm3 with this change; numbers count from the chain's first residue; source: Brevibacillus, culture supernatant (ammonium sulfate precipitate); not shown: 6xHis, C-terminal, kept; 6xHN, C-terminal, kept) VH: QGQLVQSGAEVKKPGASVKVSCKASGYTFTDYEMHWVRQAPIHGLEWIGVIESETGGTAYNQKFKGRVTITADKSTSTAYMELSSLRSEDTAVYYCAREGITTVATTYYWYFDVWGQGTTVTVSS VL: DVVMTQSPLSLPVTLGQPASISCRSSQSIYHSNGNTYLEWYLQKPGQSPQLLIYKVSNRFSGVPDRFSGSGSGTDFTLKISRVEAEDVGVYYCFQGSHVPLTFGQGTKLEIK", "koff": "0.00719 s⁻¹"}
{"BINDER": "toripalimab Fab H.V114Y (Fab, V domains shown, heavy chain of Sm3 with this change; numbers count from the chain's first residue; as the light chain of Sm3; source: Brevibacillus, culture supernatant (ammonium sulfate precipitate); not shown: 6xHis, C-terminal, kept; 6xHN, C-terminal, kept) VH: QGQLVQSGAEVKKPGASVKVSCKASGYTFTDYEMHWVRQAPIHGLEWIGVIESETGGTAYNQKFKGRVTITADKSTSTAYMELSSLRSEDTAVYYCAREGITTVATTYYWYFDYWGQGTTVTVSS VL: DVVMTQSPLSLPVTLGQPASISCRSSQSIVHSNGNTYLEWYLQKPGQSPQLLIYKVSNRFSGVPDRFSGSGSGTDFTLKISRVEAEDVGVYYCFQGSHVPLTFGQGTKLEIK", "koff": "0.00887 s⁻¹"}

Switching to the query record.
-- ask // lookup koff for toripalimab Fab H.A59Y (Fab, V domains shown, heavy chain of Sm3 with this change; numbers count from the chain's first residue; as the light chain of Sm3; source: Brevibacillus, culture supernatant (ammonium sulfate precipitate); not shown: 6xHis, C-terminal, kept; 6xHN, C-terminal, kept) VH: QGQLVQSGAEVKKPGASVKVSCKASGYTFTDYEMHWVRQAPIHGLEWIGVIESETGGTYYNQKFKGRVTITADKSTSTAYMELSSLRSEDTAVYYCAREGITTVATTYYWYFDVWGQGTTVTVSS VL: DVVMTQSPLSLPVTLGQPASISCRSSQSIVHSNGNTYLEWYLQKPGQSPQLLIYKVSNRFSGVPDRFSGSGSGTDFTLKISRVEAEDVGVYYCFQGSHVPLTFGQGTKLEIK
-- reply 0.0135 s⁻¹
